Source: patent US12216122B2

- measured_on: recombinant human IDO1 (Homo sapiens)
- Construct: purchased BPS Biosciences 72037
- Sequence (P14902 whole entry): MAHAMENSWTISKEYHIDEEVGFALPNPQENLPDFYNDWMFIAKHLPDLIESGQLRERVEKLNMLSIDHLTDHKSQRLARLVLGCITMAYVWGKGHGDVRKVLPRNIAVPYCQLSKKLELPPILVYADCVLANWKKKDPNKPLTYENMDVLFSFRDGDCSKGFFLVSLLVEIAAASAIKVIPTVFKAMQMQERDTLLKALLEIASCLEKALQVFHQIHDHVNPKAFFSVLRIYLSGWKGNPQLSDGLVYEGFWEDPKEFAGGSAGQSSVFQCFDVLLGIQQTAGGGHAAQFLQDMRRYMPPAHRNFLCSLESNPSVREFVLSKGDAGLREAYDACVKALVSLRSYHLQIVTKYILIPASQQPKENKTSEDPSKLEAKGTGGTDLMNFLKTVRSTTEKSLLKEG
- run_description: IDO1 Fluorogenic Inhibitor Screening Assay (enzyme inhibition)
- Type: biochemical
- experimental_parameters: Table 15; read-out: Inhibition Recombinant IDO1 IC50
Bridge positions count the residues as written; N and C are the ends. Square brackets hold non-standard residues; d marks the D form. Triazole bridges read from a SMILES are 1,4-linked. Peptide text beside a SMILES is read from it. * marks the point of attachment. NMeLys(N3) = CN[C@@H](CCCCN=[N+]=[N-])C(=O)O; X1 = O=C(CSc1nonc1/C(=N/O)Nc1ccc(F)c(Br)c1)*; Lys(N3) = [N-]=[N+]=NCCCC[C@H](N)C(=O)O; PEG6 = NCCOCCOCCOCCOCCOCCOCCC(=O)O; dNMeV = CN[C@@H](C(=O)O)C(C)C; Pra = C#CC[C@H](N)C(=O)O
measure: IC50
Put your answer as a value accompanied by its unit after it.

Q) I'd like to know its IC50. The compound in question is O=C(O)CSc1nonc1/C(=N/O)Nc1ccc(F)c(Br)c1
A) 928 nM

Q) I'd like to know its IC50. The compound in question is CC(C)[C@H]1NC(=O)[C@@H](Cc2ccc(O)cc2)NC(=O)[C@@H](Cc2c[nH]c3ccccc23)NC(=O)[C@@H](NC(=O)CCOCCOCCOCCOCCOCCOCCNC(=O)CSc2nonc2/C(=N/O)Nc2ccc(F)c(Br)c2)Cc2cn(nn2)CCCC[C@@H](C(N)=O)NC(=O)[C@@H](Cc2ccc(O)cc2)NC(=O)[C@@H](C)NC1=O [Inh-PEG6-wyvay] ({X1-PEG6}-[Pra][dW][dY][dV][dA][dY][Lys(N3)]-NH2; triazole 1-7)
A) 44 nM

Q) I'd like to know its IC50. The compound in question is CC(C)[C@@H]1C(=O)N[C@H](C)C(=O)N[C@H](Cc2ccc(O)cc2)C(=O)N[C@H](C(N)=O)CCCCn2cc(nn2)C[C@H](NC(=O)CCOCCOCCOCCOCCOCCOCCNC(=O)CSc2nonc2/C(=N/O)Nc2ccc(F)c(Br)c2)C(=O)N[C@H](Cc2c[nH]c3ccccc23)C(=O)N[C@H](Cc2ccc(O)cc2)C(=O)N1C [Inh-PEG6-wy(N-Me-v)ay] ({X1-PEG6}-[Pra][dW][dY][dNMeV][dA][dY][Lys(N3)]-NH2; triazole 1-7)
A) 1460 nM

Q) I'd like to know its IC50. The compound in question is CC(C)[C@H]1NC(=O)[C@@H](Cc2ccc(O)cc2)NC(=O)[C@@H](Cc2c[nH]c3ccccc23)NC(=O)[C@@H](NC(=O)CCOCCOCCOCCOCCOCCOCCNC(=O)CSc2nonc2/C(=N/O)Nc2ccc(F)c(Br)c2)Cc2cn(nn2)CCCC[C@@H](C(N)=O)N(C)C(=O)[C@@H](Cc2ccc(O)cc2)NC(=O)[C@@H](C)NC1=O [Inh-PEG6-wyvay(N-Me)] ({X1-PEG6}-[Pra][dW][dY][dV][dA][dY][NMeLys(N3)]-NH2; triazole 1-7)
A) 622 nM
